FYI, the data here is from ChEMBL document CHEMBL3045931.

System: Mycobacterium tuberculosis
Assay Remarks: Antitubercular activity against Mycobacterium tuberculosis assessed as growth inhibition […]
Format: functional, organism-based
Particulars: read-out: log(1/IC50) (converted)
Binary call on IC50 with cut-off 20 µM: strictly below means criterion met, and equality or higher means criterion not met.

Cc1ccc(C(=O)N2CCN(c3cccc(C(F)(F)F)c3)CC2)cc1: criterion met
Cc1cccc(C(=O)N2CCN(c3ccc([N+](=O)[O-])cc3)CC2)c1: criterion met
O=C(c1ccccc1F)N1CCC(Cc2ccccc2)CC1: criterion met
O=C(c1ccc(F)cc1)N1CCN(c2cccc(Cl)c2)CC1: criterion met
O=C(c1ccccc1)N1CCN(c2ccccc2)CC1: criterion not met

For the next question, use this compound.
Lab note: confirm whether the reported IC50 for this compound is below 20 µM, equality not counting. compound: O=C(c1ccccc1)N1CCN(C(c2ccc(F)cc2)c2ccc(F)cc2)CC1
criterion met
